measurementProtocol: chemical genetic growth profiling, strain panel (AID 1159580);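 also: tested at 20 µM; growth read once vehicle control cultures reached saturation at 30 °C; 1 = growth at the plate median or of vehicle wells; lower values mean less growth of the strain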
conditionDetails: S. cerevisiae deletion strains, growth OD, locus YCR088W, strain abp1, stronger effect = lower value
Hit rate of the full screen: of about 5,500 compounds, about 2,000 (36%) were called active. Inconclusive results (about 18%) are left out. The list shows a part of the results.
experimentalReadout: normalized growth

>>> quantitativereadout("O=C(O)CC(O)(CC(=O)O)C(=O)O")
1.02
>>> quantitativereadout("CCCCCCCCCCCCCCC(C(=O)O)C(O)(CC(=O)OC)C(=O)O (stereo not given)")
1.02
>>> quantitativereadout("O=C1C(O)=C(O)C(=O)C(O)=C1O")
1.01
>>> quantitativereadout("C#C[C@]1(OC(C)=O)CCC2C3CCC4=CC(=O)CC[C@@H]4C3CC[C@@]21C (stereo not given in full)")
0.99
>>> quantitativereadout("C#C[C@]1(O)CCC2C3CCC4=CC(=O)CC[C@@H]4C3CC[C@@]21CC (stereo not given in full)")
0.999
